Task for the reader: assign each of the following compounds its reported half-life.
- ASSAY METHOD TEXT: Pharmacokinetics (half life) in rat after intravenous administration
- Assay type: in vivo
- CONDITION SUMMARY: male, Wistar Han, rat, plasma, iv, 0.5 mg/kg, male Wistar Han rats, read-out: Half Life (t1/2) (converted)
Your answer is read as min, so omit the unit and give the number.

Q) Find the recorded half-life belonging to O=C(O)c1cc(-c2ncc(C(=O)NC(c3ccccc3)c3ccccc3)c(O)n2)no1 [Example 2-16 from WO2013/040789, reference compound] and report it.
A) 18

Q) Find the recorded half-life belonging to O=C(O)CCNC(=O)c1ncc(C(=O)NC(c2ccccc2)c2ccccc2)c(O)n1 [Example 2-11 from WO2013/040789, reference compound] and report it.
A) 16.8

Q) Find the recorded half-life belonging to COc1ccc(C(NC(=O)c2cnc(C(=O)NCC(C)C(=O)O)nc2O)c2ccc3cc(OC)ccc3n2)cc1 (single isomer, unassigned) and report it.
A) 81.6

Q) Find the recorded half-life belonging to COc1ccc(C(NC(=O)c2cnc(C(=O)NCC(C)C(=O)O)nc2O)c2ccc(OC)cc2)cc1 (single isomer, unassigned) and report it.
A) 59.4

Q) Find the recorded half-life belonging to CC(NC(=O)c1cnc(C(=O)NCCC(=O)O)nc1O)c1ccc(-c2ccc(F)cc2)cc1 (racemic) and report it.
A) 41.4

Q) Find the recorded half-life belonging to "COc1ccc([C@H](NC(=O)c2cnc(C(=O)NCCC(=O)O)nc2O)c2ccccc2)cc1" and report it.
A) 41.4

Q) Find the recorded half-life belonging to COc1ccc(C(NC(=O)c2cnc(C(=O)NCCC(=O)O)nc2O)c2ccc3c(c2)CCO3)cc1 (stereo not shown) and report it.
A) 95.4

====

- ASSAY METHOD TEXT: Pharmacokinetics (half life) in rat after intravenous administration
- Format: in vivo
- CONDITION SUMMARY: male, Wistar Han, rat, plasma, iv, 0.5 mg/kg, male Wistar Han rats, read-out: Half Life (t1/2) (converted)
RESULT TYPE: half-life (h)
Your answer is read as h, so omit the unit and give the number.

Q) Find the recorded half-life belonging to O=C(N[C@@H](Cc1c[nH]c2ccccc12)C(=O)O)c1ncc(C(=O)NC(c2ccccc2)c2ccccc2)c(O)n1 [Example 6] and report it.
A) 1.68

Q) Find the recorded half-life belonging to O=C(NC[C@H](O)C(=O)O)c1ncc(C(=O)NC(c2ccccc2)c2ccccc2)c(O)n1 [Example 7] and report it.
A) 1.02

Q) Find the recorded half-life belonging to COc1ccc([C@@H](NC(=O)c2cnc(C(=O)NCCC(=O)O)nc2O)c2ccccc2)cc1 [Example 36] and report it.
A) 6.76

Q) Find the recorded half-life belonging to O=C(NCC1(C(=O)O)CC1)c1ncc(C(=O)NC(c2ccccc2)c2ccccc2)c(O)n1 [Example 4] and report it.
A) 4.78

Q) Find the recorded half-life belonging to C[C@H](CNC(=O)c1ncc(C(=O)NC(c2ccccc2)c2ccccc2)c(O)n1)C(=O)O (single isomer, unassigned) [Example 2] and report it.
A) 1.45

Q) Find the recorded half-life belonging to O=C(O)CNC(=O)c1ncc(C(=O)NC(c2ccccc2)c2ccccc2)c(O)n1 [Example 2-12 from WO2013/040789, reference compound] and report it.
A) 0.56

Q) Find the recorded half-life belonging to CC(CNC(=O)c1ncc(C(=O)NC2(c3ccc(Br)cc3)CC2)c(O)n1)C(=O)O (single isomer, unassigned) [Example 16] and report it.
A) 0.88

Q) Find the recorded half-life belonging to O=C(O)CCNC(=O)c1ncc(C(=O)NC2(c3ccc(Br)cc3)CC2)c(O)n1 [Example 45] and report it.
A) 0.62

Q) Find the recorded half-life belonging to C[C@@H](CNC(=O)c1ncc(C(=O)NC(c2ccccc2)c2ccccc2)c(O)n1)C(=O)O (single isomer, unassigned) [Example 1] and report it.
A) 1.9
